The values you see were collected from patent US20090035322A1.

Overview of recorded % Cytotoxicity (CDC, Daudi), 0 hour for various binders
Biological target: T1, human CD20 (human, UniProt P11836 1-297)
T1 sequence: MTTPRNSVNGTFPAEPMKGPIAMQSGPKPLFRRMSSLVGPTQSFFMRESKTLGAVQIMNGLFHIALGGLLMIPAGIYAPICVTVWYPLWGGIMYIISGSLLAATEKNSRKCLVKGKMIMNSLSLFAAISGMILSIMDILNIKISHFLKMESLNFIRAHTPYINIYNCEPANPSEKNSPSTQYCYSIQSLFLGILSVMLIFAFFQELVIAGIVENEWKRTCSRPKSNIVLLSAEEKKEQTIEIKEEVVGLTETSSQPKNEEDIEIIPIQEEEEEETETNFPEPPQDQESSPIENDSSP
Assay: cell-based or functional assay
Give the value in % but do not write % after it.

2C11-4 (antibody, V domains shown, Fully human IgG, constant region not specified; also called 2C11-4N) VH: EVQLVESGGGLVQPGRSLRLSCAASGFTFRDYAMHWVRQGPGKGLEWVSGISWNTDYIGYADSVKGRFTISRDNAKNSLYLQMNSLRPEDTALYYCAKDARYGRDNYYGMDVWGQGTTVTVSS VL: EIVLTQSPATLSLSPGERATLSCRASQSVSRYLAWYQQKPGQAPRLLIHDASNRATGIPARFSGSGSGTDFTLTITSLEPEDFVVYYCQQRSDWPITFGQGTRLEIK; 29.1
9H4-12 (antibody, V domains shown, Fully human IgG, constant region not specified; also called 9H4-12N) VH: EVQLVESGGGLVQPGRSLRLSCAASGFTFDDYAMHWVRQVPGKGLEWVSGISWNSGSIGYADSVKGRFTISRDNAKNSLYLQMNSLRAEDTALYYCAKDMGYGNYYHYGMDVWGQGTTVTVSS VL: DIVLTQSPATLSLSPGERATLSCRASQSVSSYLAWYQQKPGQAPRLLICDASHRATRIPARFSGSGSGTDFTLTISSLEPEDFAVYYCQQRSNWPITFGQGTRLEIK; 43.2

Read the next record carefully.
Determine from records and report % Cytotoxicity (CDC, Daudi), 0 hour for 3B9-10 (antibody, V domains shown, Fully human IgG, constant region not specified; also called 3B9-10N) VH: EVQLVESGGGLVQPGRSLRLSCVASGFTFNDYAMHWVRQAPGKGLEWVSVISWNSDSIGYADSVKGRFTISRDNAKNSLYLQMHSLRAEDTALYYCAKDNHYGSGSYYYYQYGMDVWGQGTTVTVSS VL: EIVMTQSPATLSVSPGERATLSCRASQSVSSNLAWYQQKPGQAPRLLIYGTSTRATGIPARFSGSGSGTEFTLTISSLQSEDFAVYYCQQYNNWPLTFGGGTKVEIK
98.4
